- TARGET OR SYSTEM: human Mnk2a (Homo sapiens)
- Sequence (Q9HBH9 whole entry): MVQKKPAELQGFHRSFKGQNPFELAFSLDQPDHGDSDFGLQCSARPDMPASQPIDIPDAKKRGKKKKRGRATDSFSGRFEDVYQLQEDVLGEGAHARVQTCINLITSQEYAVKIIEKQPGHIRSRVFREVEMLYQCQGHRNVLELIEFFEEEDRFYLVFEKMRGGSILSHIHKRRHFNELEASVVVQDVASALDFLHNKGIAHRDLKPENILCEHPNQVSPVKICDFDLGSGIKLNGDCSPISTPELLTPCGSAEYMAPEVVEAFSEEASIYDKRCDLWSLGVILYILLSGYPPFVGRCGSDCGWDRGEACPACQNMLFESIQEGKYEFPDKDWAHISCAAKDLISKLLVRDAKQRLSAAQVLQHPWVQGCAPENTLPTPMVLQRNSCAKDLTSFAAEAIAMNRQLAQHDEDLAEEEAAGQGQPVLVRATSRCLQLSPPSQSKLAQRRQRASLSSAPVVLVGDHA
- TEST SUMMARY: Mnk2a in vitro kinase assay (indirect fluorescence polarization)
- CONDITION SUMMARY: GST-Mnk2a pre-activated with ERK2, 20 μM ATP, 30 μM substrate peptide; read-out: MNK2 IC50
REPORTED PROPERTY: IC50 (µM)
All answers are understood in µM, so give the number only.

Entry Cc1c(C(=O)NC2CCCC(O)C2)sc2ncnc(Nc3ccc(F)cc3OC3CCOCC3)c12 (centres unmarked) : reported IC50 = ?
0.042

Entry Cc1c(C(=O)NCC2CNCCO2)sc2ncnc(Nc3ccc(F)cc3OC3CCOCC3)c12 (centres unmarked) : reported IC50 = ?
0.017

Entry Cc1c(C(N)=O)sc2ncnc(Nc3ccc(C#N)cc3O[C@H]3CCCNC3)c12 : reported IC50 = ?
0.046

Entry Cc1c(C(=O)NC2CCN(C)CC2)sc2ncnc(Nc3ccc(F)cc3OC3CCOCC3)c12 : reported IC50 = ?
0.06

Entry Cc1c(C(=O)NCCCN2CCCC2)sc2ncnc(Nc3ccc(F)cc3O[C@H]3CCOC3)c12 : reported IC50 = ?
0.022

Entry CSCCCNC(=O)c1sc2ncnc(Nc3cccnc3OC3CCOCC3)c2c1C : reported IC50 = ?
0.077

Entry Cc1c(C(=O)NCCCN2CCN(C)CC2)sc2ncnc(Nc3ccc(F)cc3OC3CCOCC3)c12 : reported IC50 = ?
0.022

Entry Cc1c(C(N)=O)sc2ncnc(Nc3cccnc3O[C@H]3CCCNC3)c12 : reported IC50 = ?
0.019

The reported numbers originate from patent US8648068B2.
